- ASSAY_PROTOCOL: cytotoxicity in HPDE-C7 cells, cell-based, fluorescence, HTS (AID 430);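 further: cells exposed to compound for 48 hours before viability readout; 0% = vehicle and 100% = reference cytotoxic drug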
- DETAILS: HPDE-C7 pancreatic duct cells viability, at 10 µM, active compounds read high
Hit rate of the full screen: of about 63,000 compounds, about 1,100 (1.7%) were called active. Shown is part of a subset that was picked to be rich in actives. Entries with a potency or affinity are not part of this list.
MEASURED_METRIC: cytotoxicity

Requested field: cytotoxicity. Item: Cn1c(-c2ccc3c(c2)OCO3)cnc1NCc1ccccc1
-1.6% (inactive)

Requested field: cytotoxicity. Item: Clc1ccc(OCc2nc(-c3ccccn3)n[nH]2)cc1
42.3% (inactive)

Requested field: cytotoxicity. Item: Cc1cc(Cl)ccc1OCc1nc(-c2ccc(O)cc2)n[nH]1
77.3% (active)

Requested field: cytotoxicity. Item: Cc1cc(Cl)ccc1OCCCC(N)=O
-4.7% (inactive)

Requested field: cytotoxicity. Item: Cn1c(-c2ccc3c(c2)OCO3)cnc1NCc1ccc(Cl)cc1
43.1% (inactive)

Requested field: cytotoxicity. Item: O=C(CN1C(=O)CSc2ccccc21)NCCC1=CCCCC1
-11% (inactive)
